Test system: Mus musculus
ASSAY_OVERVIEW: Number of L1210 mice cured after i.v. drug dosing on hours 1 and 5
Assay type: functional
Some compounds, each annotated with its measured Cures.
Write no unit; give the number alone.

Solved entries (count: 4):
- COMPOUND: "CCC(O)(C(=O)[O-])c1cc2n(c(=O)c1CO)Cc1cc3cc4c(cc3nc1-2)OCO4.[Na+] (racemic)"
  Cures: 0
- COMPOUND: "CCC1(OC(=O)CN)C(=O)OCc2c1cc1n(c2=O)Cc2cc3cc(N)ccc3nc2-1.Cl (racemic)"
  Cures: 0
- COMPOUND: "CCC(O)(C(=O)[O-])c1cc2n(c(=O)c1CO)Cc1cc3cc([O-])ccc3nc1-2.[Na+].[Na+] (stereo not given)"
  Cures: 0
- COMPOUND: "CCC1(O)C(=O)OCc2c1cc1n(c2=O)Cc2cc3c(NC(=O)CN)cccc3nc2-1.Cl (racemic)"
  Cures: 0

Read the next record carefully.
query: Fill in: Cures of CCC1(OC(=O)CN)C(=O)OCc2c1cc1n(c2=O)Cc2cc3cc4c(cc3nc2-1)OCO4.Cl (racemic) is ___
result: 3
